Tested on: 60 cancer lines
Assay: NCI cell toxicity assay of 60 cancer lines, whole panel summary
Format: cell-based, human
Conditions: mean over all cell lines; 1.00E−5 Molar
recorded.metric: Growth Percent, Mean (%)

INSERT INTO results (molecule, recorded_metric, quantitative_readout) VALUES
  ('O=c1c2ccccc2sc2c(Cl)c(SCc3ccc(F)cc3)ccc12 [No. 24]', 'Growth Percent, Mean', 85.42),
  ('COc1cccc(Sc2ccc3c(=O)c4ccccc4sc3c2Cl)c1 [No. 16]', 'Growth Percent, Mean', 101.65),
  ('O=c1c2ccccc2sc2c(Cl)c(Sc3ccc(Cl)cc3)ccc12 [No. 29]', 'Growth Percent, Mean', 78.44),
  ('Cc1cc(C)cc(Sc2ccc3c(=O)c4ccccc4sc3c2Cl)c1 [No. 14]', 'Growth Percent, Mean', 101.73),
  ('Cc1cccc(C)c1Sc1ccc2c(=O)c3ccccc3sc2c1Cl [No. 12]', 'Growth Percent, Mean', 102.52),
  ('O=c1c2ccccc2sc2c(Cl)c(SCc3ccccc3)ccc12 [No. 23]', 'Growth Percent, Mean', 81.22),
  ('COc1ccc(CSc2ccc3c(=O)c4ccccc4sc3c2Cl)cc1 [No. 27]', 'Growth Percent, Mean', 103.13),
  ('CCCSc1ccc2c(=O)c3ccccc3sc2c1Cl [No. 3]', 'Growth Percent, Mean', 91.31),
  ('O=c1c2ccccc2sc2c(Cl)c(SCc3ccc(Cl)cc3)ccc12 [No. 26]', 'Growth Percent, Mean', 99.47),
  ('O=c1c2ccccc2sc2c(Cl)c(Sc3ccccc3)ccc12 [No. 6]', 'Growth Percent, Mean', 96.75);

* * *

System: A control cell lines
Test: MTT assay, A control cell lines (lung cancer cell)
Type: cell-based
recorded.metric: cell viabilities of A control cell lines (MTT assay)

INSERT INTO measurements (smiles_str, result) VALUES
  ('O=c1c2ccccc2sc2c(Cl)c(Sc3ccccc3)ccc12', '99.7 ± 4.76%'),
  ('CCSc1ccc2c(=O)c3ccccc3sc2c1Cl', '85.1 ± 2.74%'),
  ('O=c1c2ccccc2sc2c(Cl)c(SCc3ccc(Br)cc3)ccc12', '40.8%'),
  ('CCOc1cccc(Sc2ccc3c(=O)c4ccccc4sc3c2Cl)c1', '91.3 ± 1.74%'),
  ('O=c1c2ccccc2sc2c(Cl)c(Sc3cccc(Cl)c3)ccc12', '97.7 ± 1.46%'),
  ('O=c1c2ccccc2sc2c(Cl)c(Sc3ccc(Cl)cc3)ccc12', '70.1 ± 2.68%'),
  ('Cc1cc(C)c(CSc2ccc3c(=O)c4ccccc4sc3c2Cl)c(C)c1', '52.9%'),
  ('COc1cccc(Sc2ccc3c(=O)c4ccccc4sc3c2Cl)c1', '91.8 ± 3.07%'),
  ('O=c1c2ccccc2sc2c(Cl)c(SCc3ccc(Cl)cc3)ccc12', '96.8 ± 4.29%'),
  ('Cc1cccc(Sc2ccc3c(=O)c4ccccc4sc3c2Cl)c1', '120 ± 1.51%');

* * *

Test system: OVCAR-5
Test: NCI in vitro DTP human cell line screen, OVCAR-5
Assay type: cell-based
Conditions: Ovarian Cancer, 1.00E−5 Molar
recorded.metric: Growth Percent (%)

INSERT INTO measurements (molecule, units_of_measure, quantitative_readout) VALUES
  ('O=c1c2ccccc2sc2c(Cl)c(SCc3ccc(Cl)cc3)ccc12 [No. 26]', '%', 102.23),
  ('O=c1c2ccccc2sc2c(Cl)c(Sc3ccccc3)ccc12 [No. 6]', '%', 104.51),
  ('O=c1c2ccccc2sc2c(Cl)c(SCc3ccccc3)ccc12 [No. 23]', '%', 94.34),
  ('COc1cccc(Sc2ccc3c(=O)c4ccccc4sc3c2Cl)c1 [No. 16]', '%', 94.14),
  ('Cc1cccc(C)c1Sc1ccc2c(=O)c3ccccc3sc2c1Cl [No. 12]', '%', 96.86),
  ('COc1ccc(CSc2ccc3c(=O)c4ccccc4sc3c2Cl)cc1 [No. 27]', '%', 103.70),
  ('O=c1c2ccccc2sc2c(Cl)c(SCc3ccc(F)cc3)ccc12 [No. 24]', '%', 108.14),
  ('CCCSc1ccc2c(=O)c3ccccc3sc2c1Cl [No. 3]', '%', 94.79),
  ('Cc1cc(C)cc(Sc2ccc3c(=O)c4ccccc4sc3c2Cl)c1 [No. 14]', '%', 98.39),
  ('O=c1c2ccccc2sc2c(Cl)c(Sc3ccc(Cl)cc3)ccc12 [No. 29]', '%', 107.36);
